- Study System: Acetylcholinesterase (Homo sapiens)
- Measurement Notes: Acetylcholinesterase (AChE) small molecule antagonists: fluorescence cell-based qHTS assay (AID 1347398); note: nearly all actives have a fitted effect of over 50% in size
- Measurement Setup: SH-SY5Y cells; AChE activity; series mostly up to 115 µM
Records with an inconclusive call do not appear. Active and inactive are the calls of the source. Calls come from the whole dose curve.
Assign a class; possible classes are active, inactive

Use the examples below as a reference point.
1) O.O.O.O=C([O-])[C@H]([O-])[C@@H]([O-])C(=O)[O-].O=C([O-])[C@H]([O-])[C@@H]([O-])C(=O)[O-].[K+].[K+].[Sb+3].[Sb+3] | inactive
2) C[C@@H]1CC2=CC(=O)CC[C@@H]2[C@H]2CC[C@@]3(C)[C@@H](CC[C@]3(C)O)[C@@H]21 | inactive
3) OCC(Br)CBr (configuration not stated) | inactive
4) CCC(C)Nc1c([N+](=O)[O-])cc(C(C)(C)C)cc1[N+](=O)[O-] (configuration not stated) | inactive
5) c1csc(-c2ccc(-c3cccs3)s2)c1 | inactive

Exercise: What was the test verdict on "COC(=O)c1ccccc1S(=O)(=O)NC(=O)Nc1nc(C)nc(OC)n1" ?
Solution: inactive

Exercise: Now the molecule CC(C)c1c(CN(C)C(C)Cc2ccccc2)n(C)n(-c2ccccc2)c1=O (configuration not stated)
Solution: inactive

Exercise: Now the molecule "CNC(=O)/C=C(\C)OP(=O)(OC)OC"
Solution: active

Exercise: Now the molecule "CN/C(=N\[N+](=O)[O-])NCc1cnc(Cl)s1"
Solution: inactive

Exercise: Now the molecule "CC(C)=CCN1CC[C@@]2(C)c3cc(O)ccc3C[C@@H]1[C@@H]2C"
Solution: active

Exercise: Now the molecule "COc1cnc(OC)n2nc(NS(=O)(=O)c3c(OCC(F)F)cccc3C(F)(F)F)nc12"
Solution: inactive
